targetDesc: NLRP3 (Homo sapiens)
Sequence (Q96P20 whole entry): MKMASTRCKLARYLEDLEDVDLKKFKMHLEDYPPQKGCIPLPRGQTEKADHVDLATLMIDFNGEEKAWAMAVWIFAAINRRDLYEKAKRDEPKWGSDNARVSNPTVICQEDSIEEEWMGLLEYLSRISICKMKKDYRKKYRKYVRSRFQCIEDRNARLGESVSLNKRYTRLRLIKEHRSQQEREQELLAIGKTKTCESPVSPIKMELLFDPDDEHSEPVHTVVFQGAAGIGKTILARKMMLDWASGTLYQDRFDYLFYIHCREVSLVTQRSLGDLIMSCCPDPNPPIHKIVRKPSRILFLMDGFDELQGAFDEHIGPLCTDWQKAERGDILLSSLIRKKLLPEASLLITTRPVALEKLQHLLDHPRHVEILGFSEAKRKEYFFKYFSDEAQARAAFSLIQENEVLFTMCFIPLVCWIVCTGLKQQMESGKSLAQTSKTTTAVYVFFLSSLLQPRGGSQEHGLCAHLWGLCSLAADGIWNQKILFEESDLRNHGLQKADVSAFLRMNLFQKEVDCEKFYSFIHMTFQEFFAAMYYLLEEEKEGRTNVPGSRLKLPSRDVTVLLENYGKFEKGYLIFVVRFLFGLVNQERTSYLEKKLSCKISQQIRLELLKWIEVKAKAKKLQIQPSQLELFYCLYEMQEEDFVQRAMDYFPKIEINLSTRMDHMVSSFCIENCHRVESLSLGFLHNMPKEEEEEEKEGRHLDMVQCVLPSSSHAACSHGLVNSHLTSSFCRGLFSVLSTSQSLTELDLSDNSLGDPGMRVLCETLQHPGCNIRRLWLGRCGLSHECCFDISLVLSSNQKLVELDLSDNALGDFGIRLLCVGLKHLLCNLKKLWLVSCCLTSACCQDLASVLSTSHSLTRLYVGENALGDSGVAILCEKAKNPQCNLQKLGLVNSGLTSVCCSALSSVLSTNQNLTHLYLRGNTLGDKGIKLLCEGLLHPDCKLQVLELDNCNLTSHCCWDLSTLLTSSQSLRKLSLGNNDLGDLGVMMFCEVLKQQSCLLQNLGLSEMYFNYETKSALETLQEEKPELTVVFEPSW
assayProtocol: THP-1 cells pyroptosis assay (LPS + nigericin, resazurin read-out)
Assay type: cell-based
Set-up: Seed THP-1 cells (25,000 cells/well) containing 1.0 μg/ml LPS; host or cells: THP-1 cells
runParameters: NLRP3 inhibitory activity, 1 μg/ml LPS, 5 μM nigericin
Counter-ions that a name gives are not always drawn.
// reported IC50 for each item listed
propertyLabel: IC50

In [3]: df
Out[3]:
                                   molecule    valuereported
0  O=C(Nc1c2c(cc3c1CCC3)CCC2)NS(=O)(=O)c1cnn(CC2CC2)c1 [Example 44, sodium salt]         < 250 nM
1  CC(C)c1cccc(O[C@H]2CCOC2)c1NC(=O)NS(=O)(=O)c1ccn(C(C)C)n1 [Example 86]  1000 to 5000 nM
2  CC(C)(C)OC(=O)NC/C(=C\F)COc1ccc(S(=O)(=O)NC(=O)Nc2c3c(cc4c2CCC4)CCC3)cc1 [Example 18, potassium salt]  1000 to 5000 nM
3  COC(C)(C)c1cc(S(=O)(=O)NC(=O)Nc2c(C(C)C)cccc2C(C)C)nn1C [Example 81]    250 to 500 nM

* * *

pIC50 by entry:
targetDesc: NLRP3 (Homo sapiens)
assayProtocol: Human whole blood IL-1β release assay (LPS + nigericin, AlphaLisa)
Format: cell-based
Parameters: Human whole blood in Li-heparin tubes was obtained from healthy donors; from tissue; host or cells: human whole blood from healthy donors
runParameters: NLRP3 inhibitory activity, 1 μg/ml LPS, 10 μM nigericin, read-out: HWB IC50
pIC50: −log10 of the molar value. Counter-ions that a name gives are not always drawn.
propertyLabel: pIC50

In [3]: df
Out[3]:
                                   molecule  valuereported
0  CC(C)c1cc(F)cc(C(C)C)c1CC(=O)NS(=O)(=O)c1ccc(CN(C)C)cc1 [Example 33, 2,2,2-trifluoroacetate salt]   5.30 to 6.00
1  COC(C)(C)c1cc(S(=O)(=O)NC(=O)Nc2c(C(C)C)cc(F)cc2C(C)C)nn1C [Example 82]   6.00 to 6.30
2  Cc1cc(C(C)(C)O)ccc1S(=O)(=O)NC(=O)Cc1c(C(C)C)cc(F)cc1C(C)C [Example 2, potassium salt]         < 5.00
3  CC(C)c1cccc(C(C)C)c1NC(=O)NS(=O)(=O)c1cnn(C(C)C)c1 [Example 69]   5.30 to 6.00
4  CC(C)n1ccc(S(=N)(=O)NC(=O)Cc2c3c(cc4c2CCC4)CCC3)n1 (stereo not shown) [Example 24]         < 5.00
5  CC(C)(CN1CCC1)n1ccc(S(=O)(=O)NC(=O)Nc2c3c(cc4c2CCC4)CCC3)n1 [Example 56]   6.30 to 6.60
6  CCn1ccc(S(=O)(=O)NC(=O)Nc2c3c(cc4c2CCC4)CCC3)n1 [Example 45, sodium salt]   5.30 to 6.00

* * *

assayProtocol: PK in rats, oral administration
Format: in vivo
runParameters: male, Sprague-Dawley, 1.3 mg/kg, rat plasma
propertyLabel: half-life (h)

In [3]: df
Out[3]:
                             smilesnotation  propertylabel  valuereported
0  COC(C)(C)c1cc(S(=O)(=O)NC(=O)Nc2c(C(C)C)cc(Cl)cc2C(C)C)nn1C      half-life            3.7

Recorded values, source patent US20220106289A1.
